Where do the numbers come from? From PubChem BioAssay (NCI).

system: UACC-62 melanoma; assay: NCI-60 one-dose screen, 48 h; details: 10 µM unless noted
This is part of a sample that, as a whole, favours compounds with a hit. Of some 83,000 tested, about 20% had one in any assay. Activity calls are given as the source filed them. How the source made its calls: active means growth percent below 10; inactive means the rest.
Return exactly one item of class 1 for active, class 0 for inactive

These recorded examples may help you get a feel for the data.
Cc1cc2c(-c3nc4ccccn4c3N)c(O)c(O)cc2c(O)c1-c1c(C)cc2c(-c3nc4ccccn4c3N)c(O)c(O)cc2c1O: class 1
O=C1CSC(c2c(F)cccc2Cl)N1NC(=O)C(O)(c1ccccc1)c1ccccc1 (stereo not drawn): class 0

### Prompt # outcome recorded in this test, key = Nc1nc(N)c2cc(CNc3ccc(C(=O)NC(CC(=O)O)C(=O)O)cc3)ccc2n1 (stereo not drawn)
### Response class 1

* * *

System: 786-0 renal
Test: NCI-60 one-dose screen, 48 h (100 = growth as untreated, 0 = no growth, -100 = all killed)
Conditions: 10 µM unless noted
Protocol: Cells are grown in 96 well plates and exposed to the test compound for 48 hours. Compounds are tested at a single concentration, which is 10^-5 M for most compounds. The reported endpoint is percent growth (GI% or GIPRCNT), where numbers from 0 - 100% represent growth inhibition, and numbers from -100% - 0 represent cell death. For example, a value of 40 represents 60% growth inhibition. A value of 0 means no net growth occurred over the course of the experiment. […]
This is part of a sample that, as a whole, favours compounds with a hit. Of some 83,000 tested, about 20% had one in any assay.
Answer each item with its documented growth.
One number for each entry, in %.

Recorded growth, per entry:
Nc1nc(N)c2cc(CNc3ccc(C(=O)NC(CC(=O)O)C(=O)O)cc3)ccc2n1 (stereo not drawn): 15.8
COc1ccc2c(c1)cn1c3ccc(O)cc3nc(N)c21: 18.5
COc1ccc(C2CC(=O)c3c(O)c(OC)c(OC)c(OC)c3O2)c(O)c1 (stereo not drawn): 47.2
FC(F)(F)c1ccc(CNc2ccc(Cc3c[nH]c4ncc(Cl)cc34)cn2)cn1: -49.3
O=C(Cn1c(=O)ccn(CCCCCCCCOc2ccc(Br)cc2)c1=O)Nc1ccc(Oc2ccc(Cl)cc2)cc1: 65.7
COc1ccc(Nc2ncccc2NC(=O)c2cn(Cc3cccc(Oc4ccccc4)c3)nn2)cc1: 102
CC(C)(C)c1nc(-c2cccc(NS(=O)(=O)c3c(F)cccc3F)c2F)c(-c2ccnc(N)n2)s1: 91.9

Recorded growth for `O=C(Nc1ccc(Nc2ncnc3sc4c(c23)CCOC4)cc1)Nc1ccc(Cl)c(C(F)(F)F)c1` on 786-0 renal was 107

* * *

test system: T-47D breast; experiment: NCI-60 one-dose screen, 48 h; settings: 10 µM unless noted
The panel holds about 83,000 compounds, 20% with a hit somewhere; the sample as a whole holds those more often. Active and inactive are the calls of the source. Rule for the calls: active = growth percent below 10; inactive = the rest.
Return exactly one item of Y for active, N for inactive

These recorded examples may help you get a feel for the data.
CCCc1cc2cc(-n3nc(C)c4c3CC(C)(C)CC4=O)cc(NC3CCC(O)CC3)c2c(=O)[nH]1 (configuration not stated): N
C=CCN1C(=O)c2cccc3c(-c4ccc5c(c4)ncn5C4CCCCC4)ccc(c23)C1=O: N
COc1c(C(NC(=O)c2ccccc2)c2sccc2C)cc(Cl)c2cccnc12 (configuration not stated): N
CCCCn1c(C)nc2cc(Nc3nc(N4CCCCC4)nc4nc[nH]c34)ccc21: Y
CCc1cnn2c(NCc3ccc[n+]([O-])c3)cc(N3CCCC[C@H]3CCO)nc12: Y

### Prompt # outcome recorded in this test, key = `COc1cc2ncnc(Nc3cccc(Cl)c3F)c2cc1OC(=O)N1CCN(C)C[C@H]1C`
### Response N

### Prompt # outcome recorded in this test, key = `COc1cc(F)c(F)c(Nc2ccc(I)cc2F)c1NS(=O)(=O)C1(C[C@H](O)CO)CC1`
### Response N

### Prompt # outcome recorded in this test, key = COC1CCC(N2C(=O)CNc3ncc(-c4ccc(C(C)(C)O)nc4)nc32)CC1 (configuration not stated)
### Response Y
